# protocol: self-splicing fitness, log relative to wild type (ln ratio); higher = more splicing; Tetrahymena group I intron in knt gene, E. coli kanamycin selection, DiMSum; sequences stand for … in CUCUCU…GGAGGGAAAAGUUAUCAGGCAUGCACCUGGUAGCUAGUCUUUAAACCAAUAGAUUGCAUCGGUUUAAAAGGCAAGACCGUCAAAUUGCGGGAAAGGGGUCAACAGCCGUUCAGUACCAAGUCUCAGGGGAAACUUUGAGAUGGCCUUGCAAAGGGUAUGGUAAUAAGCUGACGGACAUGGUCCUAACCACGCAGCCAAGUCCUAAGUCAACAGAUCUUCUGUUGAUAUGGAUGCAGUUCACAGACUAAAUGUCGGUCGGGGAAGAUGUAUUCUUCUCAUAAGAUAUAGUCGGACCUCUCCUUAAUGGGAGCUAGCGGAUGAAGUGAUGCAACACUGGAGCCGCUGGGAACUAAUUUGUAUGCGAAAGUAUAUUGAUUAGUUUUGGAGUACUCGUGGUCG;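 further: selection with 25 µg/mL kanamycin versus none on LB agar overnight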
# condition context: 30 °C

- chain sequence: "GCCUAGCAAUAUUACGUUUC"
  self-splicing fitness (ln): -2.03
- chain sequence: "UAGAAGCAAUAUUACGAAGU"
  self-splicing fitness (ln): -3.7
- chain sequence: "AUUAAGCAAUAUUACGCACG"
  self-splicing fitness (ln): -1.37
- chain sequence: "UAUGAGCAAUAUUACGGAAU"
  self-splicing fitness (ln): -3.65
- chain sequence: "GGGCAGCAAUAUUACGUCUA"
  self-splicing fitness (ln): 0.309
- chain sequence: "AGCAAGCAAUAUUACGUCAU"
  self-splicing fitness (ln): -1.5
- chain sequence: "ACGGAGCAAUAUUACGCAAU"
  self-splicing fitness (ln): -2.81
- chain sequence: "UCUAAGCAAUAUUACGCGUU"
  self-splicing fitness (ln): -4.04
- chain sequence: "UCGGAGCAAUAUUACGAAAC"
  self-splicing fitness (ln): -2.87
- chain sequence: "AAAAAGCAAUAUUACGAGGA"
  self-splicing fitness (ln): -2.86
- chain sequence: "ACACAGCAAUAUUACGUCAU"
  self-splicing fitness (ln): -2.34
- chain sequence: "AGCUAGCAAUAUUACGCUAU"
  self-splicing fitness (ln): -2.89
- chain sequence: "CACGAGCAAUAUUACGCAGG"
  self-splicing fitness (ln): -3.49
- chain sequence: "ACCAAGCAAUAUUACGAACU"
  self-splicing fitness (ln): -0.54
- chain sequence: "CUAUAGCAAUAUUACGGCCG"
  self-splicing fitness (ln): 0.0895
- chain sequence: "CUGCAGCAAUAUUACGAGAA"
  self-splicing fitness (ln): -2.56
- chain sequence: "CUAUAGCAAUAUUACGUAGC"
  self-splicing fitness (ln): -4.05
- chain sequence: "UCGCAGCAAUAUUACGCAAU"
  self-splicing fitness (ln): -2.15
- chain sequence: "AUCUAGCAAUAUUACGGUUC"
  self-splicing fitness (ln): -2.94
- chain sequence: "GCUUAGCAAUAUUACGAGAA"
  self-splicing fitness (ln): -1.2
- chain sequence: "GGUCAGCAAUAUUACGACUG"
  self-splicing fitness (ln): -0.394
- chain sequence: "AAGCAGCAAUAUUACGUGGA"
  self-splicing fitness (ln): -3.63
- chain sequence: "UUCAAGCAAUAUUACGUCGA"
  self-splicing fitness (ln): -0.383
- chain sequence: "GUGCAGCAAUAUUACGUUAG"
  self-splicing fitness (ln): -2.62
- chain sequence: "CGUCAGCAAUAUUACGGCGC"
  self-splicing fitness (ln): -3.38
- chain sequence: "UGGCAGCAAUAUUACGAUUG"
  self-splicing fitness (ln): -1.07
- chain sequence: "GUACAGCAAUAUUACGGUUC"
  self-splicing fitness (ln): -1.29
- chain sequence: "AAGCAGCAAUAUUACGUAAG"
  self-splicing fitness (ln): -1.49
